Consider the following compounds; for each one, report its pKi.
# measured on: Prostaglandin E2 receptor EP3 subtype (Mus musculus)
# Sequence (P30557 whole entry): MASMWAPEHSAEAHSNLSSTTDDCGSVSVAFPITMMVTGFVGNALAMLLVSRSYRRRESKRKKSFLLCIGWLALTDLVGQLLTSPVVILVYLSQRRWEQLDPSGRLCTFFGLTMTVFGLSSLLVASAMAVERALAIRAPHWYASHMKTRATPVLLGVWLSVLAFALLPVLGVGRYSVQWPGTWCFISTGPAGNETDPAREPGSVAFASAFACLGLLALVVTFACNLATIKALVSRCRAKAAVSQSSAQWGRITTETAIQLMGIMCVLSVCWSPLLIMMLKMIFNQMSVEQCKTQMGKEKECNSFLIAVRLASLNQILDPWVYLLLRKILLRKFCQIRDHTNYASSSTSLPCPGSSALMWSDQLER
pKi is defined as minus the log10 of a concentration measured in mol/L.

Exercise: Requested read-out pKi, target or system Prostaglandin E2 receptor EP3 subtype (Mus musculus), entry Cc1cccc(C(CC(C)C)NC(=O)c2cc(COc3cccc(C#N)c3)ccc2CCC(=O)O)c1 (centres undefined)
Solution: 9.70

Exercise: Requested read-out pKi, target or system Prostaglandin E2 receptor EP3 subtype (Mus musculus), entry Cc1ccc(C(CC(C)C)NC(=O)c2cc(COc3ccccc3)ccc2CCC(=O)O)cc1F (centres undefined)
Solution: 9.70

Exercise: Requested read-out pKi, target or system Prostaglandin E2 receptor EP3 subtype (Mus musculus), entry Cc1cc(C)cc(C(CC(C)C)NC(=O)c2cc(COc3cc(F)cc(F)c3)ccc2CCC(=O)O)c1 (centres undefined)
Solution: 9.72

Exercise: Requested read-out pKi, target or system Prostaglandin E2 receptor EP3 subtype (Mus musculus), entry CC(C)CC(NC(=O)c1cc(COc2ccccc2)ccc1CCC(=O)O)c1ccc(F)c(Cl)c1 (centres undefined)
Solution: 9.59

Exercise: Requested read-out pKi, target or system Prostaglandin E2 receptor EP3 subtype (Mus musculus), entry COc1ccc(C(CC(C)C)NC(=O)c2cc(COc3ccccc3)ccc2CCC(=O)O)cc1 (centres undefined)
Solution: 9.44

Exercise: Requested read-out pKi, target or system Prostaglandin E2 receptor EP3 subtype (Mus musculus), entry COc1ccccc1C(CC(C)C)NC(=O)c1cc(COc2ccccc2)ccc1CCC(=O)O (centres undefined)
Solution: 8.92

Exercise: Requested read-out pKi, target or system Prostaglandin E2 receptor EP3 subtype (Mus musculus), entry Cc1cc(C)cc(C(CC(C)C)NC(=O)c2cc(COc3cccc(F)c3F)ccc2CCC(=O)O)c1 (centres undefined)
Solution: 9.82

Exercise: Requested read-out pKi, target or system Prostaglandin E2 receptor EP3 subtype (Mus musculus), entry CC(C)CC(NC(=O)c1cc(COc2ccccc2)ccc1CCC(=O)O)c1ccc(C(F)(F)F)cc1 (centres undefined)
Solution: 9.12

Exercise: Requested read-out pKi, target or system Prostaglandin E2 receptor EP3 subtype (Mus musculus), entry Cc1cccc(C(CC(C)C)NC(=O)c2cc(COc3ccccc3)ccc2CCC(=O)O)c1 (centres undefined)
Solution: 9.52
